# procedure_details: Volume of distribution in iv dosed rat
# Type: ADME, organism-based
# conditions: in vivo
endpoint: Vd (L/kg)
Numeric answer only, unit L/kg assumed.

Quick one: Vd for `COc1ncc(Nc2nc3ccc(C(C)(C)O)cn3c2-c2nc(C)nc(N)n2)cc1F` ?
4.2

====

# procedure_details: AUC in rat at 2 mg/kg, po
# Format: ADME, organism-based
# conditions: in vivo
endpoint: AUC (ng·h/mL)
Respond with the bare value in ng·h/mL.

For the compound `COc1ncc(Nc2nc3ccc(C(C)(C)O)cn3c2-c2nc(C)nc(N)n2)cc1F` , what AUC is on record?
640

meta.source: ChEMBL document CHEMBL3616407
